system: Escherichia coli TOP10; assay: shrunken log2 fold change of peptide-encoding DNA abundance (4.5 h post-induction vs induction); higher = less antimicrobial activity (less host growth inhibition); settings: time post-induction: 4.5 h; library: site-saturation at positions 5, 18, 19, 20
RECORDED_METRIC: shrunken log2 fold change

| SEQUENCE_ENTRY | RECORDED_METRIC | ENDPOINT_RESULT |
| --- | --- | --- |
| RRIRWRPPRLPRPRPRPMDIPRP | shrunken log2 fold change | -0.175 |
| RRIRKRPPRLPRPRPRPNIRPRP | shrunken log2 fold change | -0.0456 |
| RRIRERPPRLPRPRPRPRRQPRP | shrunken log2 fold change | 0.00864 |
| RRIRTRPPRLPRPRPRPKQSPRP | shrunken log2 fold change | 0.113 |
| RRIRIRPPRLPRPRPRPPSWPRP | shrunken log2 fold change | 0.0866 |
| RRIRKRPPRLPRPRPRPRWFPRP | shrunken log2 fold change | 0.295 |
| RRIRSRPPRLPRPRPRPSEQPRP | shrunken log2 fold change | -0.0884 |
| RRIRYRPPRLPRPRPRPAIKPRP | shrunken log2 fold change | -0.411 |
| RRIRKRPPRLPRPRPRPDKPPRP | shrunken log2 fold change | 0.128 |
| RRIRYRPPRLPRPRPRPPDAPRP | shrunken log2 fold change | 0.0465 |
| RRIRFRPPRLPRPRPRPPWLPRP | shrunken log2 fold change | 0.509 |
| RRIRVRPPRLPRPRPRPPRHPRP | shrunken log2 fold change | 0.252 |
| RRIRRRPPRLPRPRPRPRHDPRP | shrunken log2 fold change | 0.0104 |
| RRIRLRPPRLPRPRPRPERKPRP | shrunken log2 fold change | -0.0366 |
| RRIRDRPPRLPRPRPRPQMPPRP | shrunken log2 fold change | -0.486 |

###

test system: Escherichia coli TOP10; experiment: shrunken log2 fold change of peptide-encoding DNA abundance (4.5 h post-induction vs induction); higher = less antimicrobial activity (less host growth inhibition); conditions: time post-induction: 4.5 h; library: site-saturation at positions 5, 18, 19, 20;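 also: peptides expressed intracellularly from a pBAD plasmid library in pooled LB shake-flask culture, induced with 0.3% L-arabinose, DNA abundance read by NGS, three biological replicates, DESeq2 with apeglm shrinkage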
Answer false if shrunken log2 fold change is under -0.02, and true if it is -0.02 or more.

| SEQUENCE_ENTRY | CLASS_ASSIGNMENT |
| --- | --- |
| RRIRWRPPRLPRPRPRPDQTPRP | true |
| RRIRKRPPRLPRPRPRPCRIPRP | false |
| RRIRHRPPRLPRPRPRPWTAPRP | false |
| RRIRWRPPRLPRPRPRPLHEPRP | true |
| RRIRVRPPRLPRPRPRPWHEPRP | false |
| RRIRNRPPRLPRPRPRPFGTPRP | false |
| RRIRIRPPRLPRPRPRPYGHPRP | true |
| RRIRMRPPRLPRPRPRPTNSPRP | false |
| RRIRSRPPRLPRPRPRPYWCPRP | false |
| RRIRLRPPRLPRPRPRPTGHPRP | true |
| RRIRLRPPRLPRPRPRPFEAPRP | false |
| RRIRVRPPRLPRPRPRPLTRPRP | true |
| RRIRLRPPRLPRPRPRPRPHPRP | true |
| RRIRNRPPRLPRPRPRPIAIPRP | true |
| RRIRDRPPRLPRPRPRPNLHPRP | false |
